test system: Fer (mouse); test: phosphorylation enrichment, bacterial display (enrichment ratio); higher = better substrate or ligand; peptides without Tyr show the background;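 note: 11-residue human phosphosite peptides and single-mutation variants displayed on the E. coli surface, counted by deep sequencing, each peptide's frequency after selection divided by its frequency in the unselected input library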;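 note: frequency after pTyr selection over input frequency; kinase dosed for 20-30% of maximal phosphorylation in three min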
// map phosphorylation enrichment to label using I (below 0.4), II (0.4 to below 0.6), III (0.6 or more)

- chain.sequence: "KIEGVYARDET [RPL35A_Y34]"
  label: "I"
- chain.sequence: "QRIYQYIRSRF [DYRK1B_Y273_Q275R]"
  label: "III"
- chain.sequence: "REDIFYTSKLW [AKR1C2_Y81]"
  label: "II"
- chain.sequence: "QRKPSYNQLAS [BRCA2_Y71]"
  label: "I"
- chain.sequence: "EFISESCGEII [EZH2_Y641_Y641S]"
  label: "II"

Classify this sequence: LLILEYAKFGS [RET_Y806_V804L_YF]
III

Into which category would you place KASIMYPSNNC [CXCL11_Y52] ?
I

Which phosphorylation enrichment band matches IALNSCHSRNC [IFNGR1_Y397_Y397C] ?
I
